Data credit: the supplement of paper PMC10307832

# Tested on: NCI-H596
# assay-remarks: relative viability (nuclei count vs DMSO), 5 days (fraction); higher = more cells survive
# condition-summary: first compound 0.01581 µM
readout-type: relative viability

[[record]]
compound = "CC1(C)CCC(c2ccc(Cl)cc2)=C(CN2CCN(c3ccc(C(=O)NS(=O)(=O)c4ccc(N[C@H](CCN5CCOCC5)CSc5ccccc5)c(S(=O)(=O)C(F)(F)F)c4)cc3)CC2)C1 [Navitoclax] + CC(=O)Nc1cccc(-n2c(=O)n(C3CC3)c(=O)c3c(Nc4ccc(I)cc4F)n(C)c(=O)c(C)c32)c1 [Trametinib] (partner 0.02 µM)"
reported_measurement = 1.22


###

Below is a list of entries, each paired with its recorded relative viability value.
# Test system: RERF-LC-KJ
# assay-remarks: relative viability (nuclei count vs DMSO), 5 days (fraction); higher = more cells survive
# condition-summary: first compound 0.005 µM
readout-type: relative viability

[[record]]
compound = "CC1(C)CCC(c2ccc(Cl)cc2)=C(CN2CCN(c3ccc(C(=O)NS(=O)(=O)c4ccc(N[C@H](CCN5CCOCC5)CSc5ccccc5)c(S(=O)(=O)C(F)(F)F)c4)cc3)CC2)C1 [Navitoclax] + NC(=O)Nc1cc(-c2cccc(F)c2)sc1C(=O)N[C@H]1CCCNC1 [AZD7762] (partner 0.2 µM)"
reported_measurement = 1

[[record]]
compound = "CC1(C)CCC(c2ccc(Cl)cc2)=C(CN2CCN(c3ccc(C(=O)NS(=O)(=O)c4ccc(N[C@H](CCN5CCOCC5)CSc5ccccc5)c(S(=O)(=O)C(F)(F)F)c4)cc3)CC2)C1 [Navitoclax] + Cc1nc(Nc2ncc(C(=O)Nc3c(C)cccc3Cl)s2)cc(N2CCN(CCO)CC2)n1 [Dasatinib] (partner 0.075 µM)"
reported_measurement = 0.787

[[record]]
compound = "CC1(C)CCC(c2ccc(Cl)cc2)=C(CN2CCN(c3ccc(C(=O)NS(=O)(=O)c4ccc(N[C@H](CCN5CCOCC5)CSc5ccccc5)c(S(=O)(=O)C(F)(F)F)c4)cc3)CC2)C1 [Navitoclax] + C[C@]1(O)C[C@@H](c2nc(-c3ccc4ccc(-c5ccccc5)nc4c3)c3c(N)nccn32)C1 [Linsitinib] (partner 1 µM)"
reported_measurement = 0.905


###

# System: LK-2
# assay-remarks: relative viability (nuclei count vs DMSO), 5 days (fraction); higher = more cells survive
# condition-summary: first compound 1.265 µM
readout-type: relative viability

[[record]]
compound = "O=C(O)c1ccc(-c2c[nH]c3ncc(-c4ccccc4)cc23)cc1C1CCCC1 + CCNC(=O)c1noc(-c2cc(C(C)C)c(O)cc2O)c1-c1ccc(CN2CCOCC2)cc1 [Luminespib] (partner 0.01 µM)"
tested_target = "LK-2"
readout_type = "relative viability"
reported_measurement = 0.168

[[record]]
compound = "O=C(O)c1ccc(-c2c[nH]c3ncc(-c4ccccc4)cc23)cc1C1CCCC1 + Nc1nc2[nH]cc(CCc3ccc(C(=O)N[C@@H](CCC(=O)O)C(=O)O)cc3)c2c(=O)[nH]1 [Pemetrexed] (partner 0.2 µM)"
tested_target = "LK-2"
readout_type = "relative viability"
reported_measurement = 0.276

[[record]]
compound = "O=C(O)c1ccc(-c2c[nH]c3ncc(-c4ccccc4)cc23)cc1C1CCCC1 + CS(=O)(=O)CCNCc1ccc(-c2ccc3ncnc(Nc4ccc(OCc5cccc(F)c5)c(Cl)c4)c3c2)o1 [Lapatinib] (partner 2 µM)"
tested_target = "LK-2"
readout_type = "relative viability"
reported_measurement = 0.934

[[record]]
compound = "O=C(O)c1ccc(-c2c[nH]c3ncc(-c4ccccc4)cc23)cc1C1CCCC1 + Nc1ncn([C@H]2C[C@H](O)[C@@H](CO)O2)c(=O)n1 [Decitabine] (partner 2 µM)"
tested_target = "LK-2"
readout_type = "relative viability"
reported_measurement = 0.333

[[record]]
compound = "O=C(O)c1ccc(-c2c[nH]c3ncc(-c4ccccc4)cc23)cc1C1CCCC1 + Cc1nc(Nc2ncc(C(=O)Nc3c(C)cccc3Cl)s2)cc(N2CCN(CCO)CC2)n1 [Dasatinib] (partner 0.075 µM)"
tested_target = "LK-2"
readout_type = "relative viability"
reported_measurement = 0.274

[[record]]
compound = "O=C(O)c1ccc(-c2c[nH]c3ncc(-c4ccccc4)cc23)cc1C1CCCC1 + O=C(c1cc(Cc2n[nH]c(=O)c3ccccc23)ccc1F)N1CCN(C(=O)C2CC2)CC1 [Olaparib] (partner 8 µM)"
tested_target = "LK-2"
readout_type = "relative viability"
reported_measurement = 0.648

[[record]]
compound = "O=C(O)c1ccc(-c2c[nH]c3ncc(-c4ccccc4)cc23)cc1C1CCCC1 + NC(=O)Nc1cc(-c2cccc(F)c2)sc1C(=O)N[C@H]1CCCNC1 [AZD7762] (partner 0.2 µM)"
tested_target = "LK-2"
readout_type = "relative viability"
reported_measurement = 0.49

[[record]]
compound = "O=C(O)c1ccc(-c2c[nH]c3ncc(-c4ccccc4)cc23)cc1C1CCCC1 + N=C(N)NC(=N)NCCc1ccccc1 [Phenformin] (partner 250 µM)"
tested_target = "LK-2"
readout_type = "relative viability"
reported_measurement = 0.367


###

# System: PC-3 [JPC-3]
# assay-remarks: relative viability (nuclei count vs DMSO), 5 days (fraction); higher = more cells survive
# condition-summary: first compound 0.1265 µM
Below is a list of entries, each paired with its recorded relative viability value.
readout-type: relative viability

[[record]]
compound = "O=C(O)c1ccc(-c2c[nH]c3ncc(-c4ccccc4)cc23)cc1C1CCCC1 + O=C(c1cc(Cc2n[nH]c(=O)c3ccccc23)ccc1F)N1CCN(C(=O)C2CC2)CC1 [Olaparib] (partner 8 µM)"
readout_type = "relative viability"
reported_measurement = 1.07

[[record]]
compound = "O=C(O)c1ccc(-c2c[nH]c3ncc(-c4ccccc4)cc23)cc1C1CCCC1 + CC1(C)CCC(c2ccc(Cl)cc2)=C(CN2CCN(c3ccc(C(=O)NS(=O)(=O)c4ccc(N[C@H](CCN5CCOCC5)CSc5ccccc5)c(S(=O)(=O)C(F)(F)F)c4)cc3)CC2)C1 [Navitoclax] (partner 0.5 µM)"
readout_type = "relative viability"
reported_measurement = 0.886

[[record]]
compound = "O=C(O)c1ccc(-c2c[nH]c3ncc(-c4ccccc4)cc23)cc1C1CCCC1 + Nc1nc2[nH]cc(CCc3ccc(C(=O)N[C@@H](CCC(=O)O)C(=O)O)cc3)c2c(=O)[nH]1 [Pemetrexed] (partner 0.2 µM)"
readout_type = "relative viability"
reported_measurement = 1.18

[[record]]
compound = "O=C(O)c1ccc(-c2c[nH]c3ncc(-c4ccccc4)cc23)cc1C1CCCC1 + Cc1nc(Nc2ncc(C(=O)Nc3c(C)cccc3Cl)s2)cc(N2CCN(CCO)CC2)n1 [Dasatinib] (partner 0.075 µM)"
readout_type = "relative viability"
reported_measurement = 1.09


###

# Tested on: PC-14
# assay-remarks: relative viability (nuclei count vs DMSO), 5 days (fraction); higher = more cells survive
# condition-summary: first compound 2.53 µM
Below is a list of entries, each paired with its recorded relative viability value.
readout-type: relative viability

[[record]]
molecule = "Oc1nc(-c2ccc(C(F)(F)F)cc2)nc2c1CSCC2 [XAV939] + N=C(N)NC(=N)NCCc1ccccc1 [Phenformin] (partner 250 µM)"
reported_measurement = 0.555

[[record]]
molecule = "Oc1nc(-c2ccc(C(F)(F)F)cc2)nc2c1CSCC2 [XAV939] + CC1(C)CCC(c2ccc(Cl)cc2)=C(CN2CCN(c3ccc(C(=O)NS(=O)(=O)c4ccc(N[C@H](CCN5CCOCC5)CSc5ccccc5)c(S(=O)(=O)C(F)(F)F)c4)cc3)CC2)C1 [Navitoclax] (partner 0.5 µM)"
reported_measurement = 0.956

[[record]]
molecule = "C=C1C(=O)O[C@@H](CCCCCCCC)[C@@H]1C(=O)O [C-75] + N=C(N)NC(=N)NCCc1ccccc1 [Phenformin] (partner 250 µM)"
reported_measurement = 0.549

[[record]]
molecule = "C=C1C(=O)O[C@@H](CCCCCCCC)[C@@H]1C(=O)O [C-75] + NC(=O)Nc1cc(-c2cccc(F)c2)sc1C(=O)N[C@H]1CCCNC1 [AZD7762] (partner 0.2 µM)"
reported_measurement = 0.328

[[record]]
molecule = "Oc1nc(-c2ccc(C(F)(F)F)cc2)nc2c1CSCC2 [XAV939] + CS(=O)(=O)N1CCN(Cc2cc3nc(-c4cccc5[nH]ncc45)nc(N4CCOCC4)c3s2)CC1 [Pictilisib] (partner 1 µM)"
reported_measurement = 0.386

[[record]]
molecule = "C=C1C(=O)O[C@@H](CCCCCCCC)[C@@H]1C(=O)O [C-75] + O=C(CCCCCCC(=O)Nc1ccccc1)NO [Vorinostat] (partner 1 µM)"
reported_measurement = 0.61

[[record]]
molecule = "C=C1C(=O)O[C@@H](CCCCCCCC)[C@@H]1C(=O)O [C-75] + CS(=O)(=O)N1CCN(Cc2cc3nc(-c4cccc5[nH]ncc45)nc(N4CCOCC4)c3s2)CC1 [Pictilisib] (partner 1 µM)"
reported_measurement = 0.753

[[record]]
molecule = "C=C1C(=O)O[C@@H](CCCCCCCC)[C@@H]1C(=O)O [C-75] + CC(C)C[C@H](NC(=O)[C@H](Cc1ccccc1)NC(=O)c1cnccn1)B(O)O [Bortezomib] (partner 0.002 µM)"
reported_measurement = 0.726

[[record]]
molecule = "C=C1C(=O)O[C@@H](CCCCCCCC)[C@@H]1C(=O)O [C-75] + COc1cccc2cc(-c3nc([C@H]4CC[C@H](C(=O)O)CC4)n4ncnc(N)c34)[nH]c12 [OSI-027] (partner 0.5 µM)"
reported_measurement = 0.767

[[record]]
molecule = "C=C1C(=O)O[C@@H](CCCCCCCC)[C@@H]1C(=O)O [C-75] + CS(=O)(=O)CCNCc1ccc(-c2ccc3ncnc(Nc4ccc(OCc5cccc(F)c5)c(Cl)c4)c3c2)o1 [Lapatinib] (partner 2 µM)"
reported_measurement = 0.243

